Values compiled from ChEMBL document CHEMBL3397019.

Would you mind telling me the reported IC50 of each entry?
- test: Antioxidant activity assessed as DPPH free radical scavenging activity
- Type: physicochemical

The value of IC50 measured for the compound Oc1cc(O)c2c(c1)O[C@H](c1ccc(O)c(O)c1)[C@@H](O)C2 turned out to be 23.9 µM

Memo: C[C@H]1O[C@@H](O[C@H]2[C@H](Oc3cc(O)c4c(c3)O[C@H](c3ccc(O)cc3)CC4=O)O[C@H](CO)[C@@H](O)[C@@H]2O)[C@H](O)[C@@H](O)[C@@H]1O , reported IC50: > 300 µM

COCO[C@H]1[C@H](O)[C@@H](O[C@@H]2O[C@H](C)[C@@H](O)[C@H](O)[C@H]2O)[C@H](Oc2cc(O)c3c(c2)O[C@@H](c2ccc(O)cc2)CC3=O)O[C@@H]1CO has a reported IC50 of 57.3 µM

In plain terms, C[C@H]1O[C@@H](O[C@H]2[C@H](Oc3cc(O)c4c(c3)O[C@@H](c3ccc(O)cc3)CC4=O)O[C@H](CO)[C@@H](O)[C@@H]2O)[C@H](O)[C@@H](O)[C@@H]1O has a documented IC50 of 93.8 µM

The recorded IC50 for COCO[C@H]1[C@H](O)[C@@H](O)[C@H](O[C@H]2[C@H](Oc3cc(O)c4c(c3)O[C@H](c3ccc(O)cc3)CC4=O)O[C@H](CO)[C@@H](O)[C@@H]2O)O[C@@H]1C is 148 µM

---

For each of the molecules below, state its IC50.
- test: Antioxidant activity assessed as ONOO- scavenging activity
- Format: physicochemical
Form entry: value (µM) — number only.

What the record says about COCO[C@H]1[C@H](O)[C@@H](O[C@@H]2O[C@H](C)[C@@H](O)[C@H](O)[C@H]2O)[C@H](Oc2cc(O)c3c(c2)O[C@@H](c2ccc(O)cc2)CC3=O)O[C@@H]1CO : IC50 is 4.1

Lookup result for CC(C)(S)[C@H](N)C(=O)O ; measured IC50: 5.2

Form: molecule = COCO[C@H]1[C@H](O)[C@@H](O)[C@H](O[C@H]2[C@H](Oc3cc(O)c4c(c3)O[C@H](c3ccc(O)cc3)CC4=O)O[C@H](CO)[C@@H](O)[C@@H]2O)O[C@@H]1C ; IC50 = 256
